target: PI3Kα (Homo sapiens (Human), UniProt P42336); experiment: PI3Kα enzymatic inhibitory activity IC50 assay; assay type: biochemical; details: selectivity ratio
Sequence (P42336 whole entry, species assumed): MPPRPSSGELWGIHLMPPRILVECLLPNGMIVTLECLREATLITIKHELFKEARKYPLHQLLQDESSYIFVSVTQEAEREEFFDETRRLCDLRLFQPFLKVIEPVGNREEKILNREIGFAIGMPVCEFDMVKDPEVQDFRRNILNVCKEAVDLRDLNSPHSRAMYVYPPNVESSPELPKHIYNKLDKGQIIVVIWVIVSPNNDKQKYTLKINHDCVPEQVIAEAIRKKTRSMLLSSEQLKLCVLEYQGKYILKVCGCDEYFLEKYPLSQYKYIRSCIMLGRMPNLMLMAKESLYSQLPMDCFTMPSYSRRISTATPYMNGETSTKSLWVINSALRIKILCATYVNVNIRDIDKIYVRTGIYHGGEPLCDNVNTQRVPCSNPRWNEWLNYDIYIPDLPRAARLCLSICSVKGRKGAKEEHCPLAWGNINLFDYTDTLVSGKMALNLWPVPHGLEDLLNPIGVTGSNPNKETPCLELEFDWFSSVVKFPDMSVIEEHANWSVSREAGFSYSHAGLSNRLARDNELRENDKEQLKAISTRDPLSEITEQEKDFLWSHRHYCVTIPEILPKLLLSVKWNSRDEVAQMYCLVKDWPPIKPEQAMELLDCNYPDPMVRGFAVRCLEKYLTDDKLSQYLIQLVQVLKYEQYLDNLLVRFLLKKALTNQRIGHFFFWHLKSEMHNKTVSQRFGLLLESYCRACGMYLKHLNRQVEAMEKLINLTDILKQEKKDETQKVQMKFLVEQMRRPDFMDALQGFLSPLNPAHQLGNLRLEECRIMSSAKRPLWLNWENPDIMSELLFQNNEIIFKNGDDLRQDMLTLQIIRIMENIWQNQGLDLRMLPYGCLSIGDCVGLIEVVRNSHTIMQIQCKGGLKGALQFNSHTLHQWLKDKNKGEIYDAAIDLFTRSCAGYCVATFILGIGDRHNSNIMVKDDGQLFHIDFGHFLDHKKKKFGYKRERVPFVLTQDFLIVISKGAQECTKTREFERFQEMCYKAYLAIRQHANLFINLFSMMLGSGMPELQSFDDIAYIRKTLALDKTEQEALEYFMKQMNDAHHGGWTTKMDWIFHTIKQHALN
Sequence (P27986 whole entry partner, species assumed): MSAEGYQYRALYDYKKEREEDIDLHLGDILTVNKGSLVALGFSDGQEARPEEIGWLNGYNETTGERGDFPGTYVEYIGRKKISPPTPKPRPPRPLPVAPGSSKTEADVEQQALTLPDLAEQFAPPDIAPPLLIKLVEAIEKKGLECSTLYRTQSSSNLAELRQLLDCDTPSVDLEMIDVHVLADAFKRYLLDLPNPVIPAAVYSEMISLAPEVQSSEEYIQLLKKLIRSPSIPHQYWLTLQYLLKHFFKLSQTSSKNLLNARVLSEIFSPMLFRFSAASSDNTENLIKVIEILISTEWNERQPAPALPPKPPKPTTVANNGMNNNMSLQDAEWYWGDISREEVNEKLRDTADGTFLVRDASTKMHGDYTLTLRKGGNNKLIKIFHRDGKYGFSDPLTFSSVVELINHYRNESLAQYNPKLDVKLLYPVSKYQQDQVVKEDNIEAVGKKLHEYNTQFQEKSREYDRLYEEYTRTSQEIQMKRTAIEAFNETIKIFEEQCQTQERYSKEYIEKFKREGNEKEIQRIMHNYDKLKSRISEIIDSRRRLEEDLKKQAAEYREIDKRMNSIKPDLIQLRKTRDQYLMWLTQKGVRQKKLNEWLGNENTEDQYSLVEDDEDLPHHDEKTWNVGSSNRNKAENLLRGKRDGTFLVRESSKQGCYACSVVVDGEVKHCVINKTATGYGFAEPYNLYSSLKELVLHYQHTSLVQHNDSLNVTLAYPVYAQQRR
Experimental readout: α/δ (ratio of IC50 values against PI3Kα to PI3Kδ)

Compound | Reported result
COc1ncc(-c2nc(N3CCOCC3)c3nc(OC4CN(C5CCCCC5)C4)n(C)c3n2)cc1NS(C)(=O)=O | 88
COc1ncc(-c2nc(N3CCOCC3)c3nc(OC4CCC(N5CCCC5)CC4)n(C)c3n2)cc1NS(C)(=O)=O (stereo not shown) | 91
